Tested on: MHH-CALL-2;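 note: ALL cell lines in 384-well plates, five doses spanning 10,000-fold, each plate scaled between vehicle and 100 µmol/L benzalkonium chloride controls, sDSS an adapted area-under-curve metric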
protocol-summary: selective drug sensitivity score (sDSS, relative to normal bone marrow) (sDSS (score)); higher = more potent and effective on the cell line relative to normal bone marrow cells
test-context: 72 h
readout-type: selective drug sensitivity score
Answer with the value's number alone.

Output selective drug sensitivity score of CC[C@]1(O)C[C@H]2CN(CCc3c([nH]c4ccccc34)[C@@](C(=O)OC)(c3cc4c(cc3OC)N(C=O)[C@H]3[C@@](O)(C(=O)OC)[C@H](OC(C)=O)[C@]5(CC)C=CCN6CC[C@]43[C@@H]65)C2)C1 [Vincristine] (top concentration 1000 nM)
5.52

Output selective drug sensitivity score of Cc1cnc(Nc2ccc(OCCN3CCCC3)cc2)nc1Nc1cccc(S(=O)(=O)NC(C)(C)C)c1 [Fedratinib] (top concentration 10000 nM)
-0.26

Output selective drug sensitivity score of Nc1nc(Cl)nc2c1ncn2[C@H]1C[C@H](O)[C@@H](CO)O1 [Cladribine] (top concentration 1000 nM)
4.66
